Value source: paper PMC12040169

Parameter viability at 28.5 h, 10 µM: see the listing below.
# experiment.description: in vitro
# condition.context: human, hela cells, % viability
Write the number in % without appending the unit.

{"compound": "Cc1ccc(NS(=O)(=O)c2cc(C(=O)N3CCN(C)CC3)ccc2C)cc1", "viability at 28.5 h, 10 µM / %": 92.5}
{"compound": "CCCc1cc(C(=O)N[C@@H]2CCOC[C@H]2Oc2ccc(CO)cc2)cs1", "viability at 28.5 h, 10 µM / %": 91.6}
{"compound": "O=C(NCc1ccc(-c2csnn2)cc1)c1ccco1", "viability at 28.5 h, 10 µM / %": 89}
{"compound": "Cc1c(C(=O)NC2CCCN(c3ncccn3)C2)cnn1C(C)(C)C (stereo not drawn)", "viability at 28.5 h, 10 µM / %": 91.3}
{"compound": "NC(Cc1ccc(Cl)cc1)C(=O)N(CCc1cc(C(F)(F)F)cc(C(F)(F)F)c1)c1cccc2ccccc12 (stereo not drawn) [CBK008674T]", "viability at 28.5 h, 10 µM / %": 92.5}
{"compound": "CN1CCC(N(C)C(=O)c2ccc(-c3ccccc3CO)cc2)C1 (stereo not drawn)", "viability at 28.5 h, 10 µM / %": 103}

Problem: What value of measured viability at 28.5 h, 10 µM is listed for Cc1ccc(CN2CCC(CN(C)C(=O)c3cc4sccc4[nH]3)CC2)o1 ?
Solution: 102

Problem: Would you kindly repeat that for Cc1ccc(C(=O)N2CCC3(CC2)CNC(=O)c2ccccc2O3)o1 ?
Solution: 88.3

Problem: Query CC(=O)Nc1ccc(-c2nc3ccc(-c4ccc5nc(-c6ccc(NC(C)=O)cc6)oc(=O)c5c4)cc3c(=O)o2)cc1 next
Solution: 107
